meta.source: ChEMBL document CHEMBL1201862

- Test system: SW-620
- Protocol Text: NCI tumour cell line growth inhibition, 48 h
Active and inactive are the calls of the source. Cut-off read from the data, not from the text of the source: active = GI50 up to about 1.1 µM and inactive = higher.
In this exercise, the only acceptable responses are 1 = active, -1 = inactive

COC1(OC)C(N(C)C)=C(Cl)C(=O)/C1=C/C=O: -1

Exercise: Query: recorded result category for `O=C(O)[C@@H]1[C@H](C(=O)O)[C@H](C(=O)O)C[C@@H]1C(=O)O` in this test
Key: -1

Exercise: Can you handle `O=C1[C@@H]2[C@@H](CN3CN(c4ccccc4)N=C(c4ccccc4)[C@@]23c2ccccc2)C(=O)N1c1ccccc1` next?
Key: -1

Exercise: Can you handle CC(C)[Si]1(C(C)C)OCC2OC(n3ccc(=O)[nH]c3=O)C(O)(CO)C2O[Si](C(C)C)(C(C)C)O1 (stereo not drawn) next?
Key: -1

Exercise: Can you handle Cc1ccc(S(=O)(=O)N(c2ccccc2F)C2CCCCC2O)cc1 (stereo not drawn) next?
Key: -1

Exercise: Can you handle C=C(Cl)C(Br)(CCl)CCC(Br)C(C)(C)Cl (stereo not drawn) next?
Key: -1

* * *

- Test system: RXF 393
- Protocol Text: NCI tumour cell line growth inhibition, 48 h
Active and inactive are the calls of the source. Cut-off read from the data, not from the text of the source: active = GI50 up to about 1.1 µM and inactive = higher.
The compounds listed here are annotated with their GI50.

# count of solved cases: 2
CCOC(=O)C1=COC(C)(C)CC1=O: > 100 µM (inactive)
CC(C)N(C(=O)C12C3(C(=O)OC(C)(C)C)C4C5(C#N)C3C1(C(=O)OC(C)(C)C)C5C42C(=O)OC(C)(C)C)C(C)C (stereo unspecified): 12.9 µM (inactive)

Exercise: Look up GI50 for this compound: `Cn1ncc2c(Nc3cccc(Cl)c3)nc(Nc3cccc(Cl)c3)nc21`
Key: 3.48 µM (inactive)

Exercise: Can you handle `CCN1CCCc2cc3c(C(F)(F)F)cc(=O)oc3cc21` next?
Key: 20.6 µM (inactive)

Exercise: Can you handle `C=C1c2nc3ccccc3n2C=C(c2ccc(Cl)cc2)N1c1ccc(OC)cc1` next?
Key: 10.1 µM (inactive)

Exercise: Can you handle COc1ccc(NC2Oc3cc4c(cc3C(c3cc(OC)c(O)c(OC)c3)C2C)OCO4)cc1 (stereo unspecified) next?
Key: 7.73 µM (inactive)

Exercise: Can you handle `O=C(CCCl)NN=C1NCCCN1` next?
Key: > 100 µM (inactive)

* * *

- System: LOX IMVI
- Protocol Text: NCI tumour cell line growth inhibition, 48 h
Calls of active or inactive are those of the source. No stated cut-off is given here; in the data, active = GI50 up to about 1.1 µM and inactive = higher.
In this exercise, the only acceptable responses are yes (1) for active, no (0) for inactive

Example entries begin here.
CCC(Sc1cc(Cl)c(C)cc1S(=O)(=O)Nc1nc(N)nc(N(C)C)n1)C(=O)O (stereo unspecified): no (0)
O=C(O)CNC(=O)c1cccc2c(=O)c3ccccc3[nH]c12: no (0)
CN(C)c1ccc(/C=C/c2ccnc3ccc4ccccc4c23)cc1: no (0)
Nc1ccc(-c2nn3c(COc4ccc(Cl)cc4)nnc3s2)cc1: no (0)
CC(C)c1nccn1Cc1ccc(Cl)cc1Cl: no (0)

Exercise: Query: recorded result category for `COc1ccc(OC)c(NS(=O)(=O)c2ccc3nc(C)n(NS(=O)(=O)c4cc(OC)ccc4OC)c(=O)c3c2)c1` in this test
Key: no (0)

Exercise: Can you handle `CCN(CC)CCCNc1[nH]c2ccccc2c2nc3ccc(OC)cc3c1-2` next?
Key: yes (1)

Exercise: Can you handle `C1CSCCSCCCSCCSCCCSCCSCCCSCCSC1` next?
Key: no (0)

Exercise: Can you handle `COc1nc(N=P(c2ccccc2)(c2ccccc2)c2ccccc2)cc(=O)[nH]1` next?
Key: no (0)

Exercise: Can you handle `CC/C=C(\C(=C/CC)[N+](=O)[O-])[N+](=O)[O-]` next?
Key: no (0)

Exercise: Can you handle CC1NC(=O)C2=C1C(N)=NC(=O)C2 (stereo unspecified) next?
Key: no (0)
